B1: LINE1-full (parent)
chain: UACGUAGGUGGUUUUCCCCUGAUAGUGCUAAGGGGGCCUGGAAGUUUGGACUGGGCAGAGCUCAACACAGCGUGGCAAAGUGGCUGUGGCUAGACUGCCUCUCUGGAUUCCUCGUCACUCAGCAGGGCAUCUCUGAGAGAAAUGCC

variants of: B1; experiment: self-cleavage, relative activity (ratio to wild type); higher = more cleavage; in vitro, sequencing; the parent is a self-cleaving ribozyme
The entries below are paired with their reported self-cleavage.
measured.parameter: self-cleavage

G8U U39A | 1.12
A92U A117G | 1.46
A22G G35U | 0.6
A65G U134C | 0.06
C37U U39C | 1.26
